Each recorded value in this set is attributed to patent US20210355229A1.

Target: T1, human OX40-FC-biotin (human OX40 recombinant protein with Fc tag, Acro Biosystems OX40-H5255, labeled with … (human, UniProt P43489 29-216, labeled with biotin (site not stated)))
T1 construct: range 29-216; Bought (Acro Biosystems OX40-H5255; printed once as OXO-H5255), expressed in HEK293; also called human Bio-OX40-FC; not shown: Fc tag of the bought protein
T1 sequence (looked up): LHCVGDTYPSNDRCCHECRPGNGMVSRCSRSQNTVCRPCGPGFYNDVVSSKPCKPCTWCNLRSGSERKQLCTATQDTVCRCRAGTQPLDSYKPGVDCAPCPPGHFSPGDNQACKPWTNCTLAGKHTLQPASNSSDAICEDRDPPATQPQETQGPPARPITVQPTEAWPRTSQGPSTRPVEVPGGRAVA
Experiment: capture ELISA, biotin-OX40-Fc
Reported EC50 values are given for each entry in this list.
A bare number is not enough; add the unit after it.

binder	result
humanized antibody 2G3-hu2 (antibody, human IgG1, V domains shown, hu2G3 VH2 + hu2G3 VL1) VH: QVQLQESGPGLVKPSETLSLTCTVSGGSISRYSVHWIRQPPGKGLEWIGMIWDGGNTDYNSALKSRVTISVDTSKNQFSLKLSSVTAADTAVYYCARNPLYFSYAMDYWGQGTLVTVSS VL: DIQMTQSPSSLSASVGDRVTITCRASQDISNYLNWYQQKPDQSPKLLIIYTSRLQSGVPSRFSGSGSGTDYTLTISSLQPEDFATYYCQQVNTFPFTFGQGTKLEIK	1.6 µg/mL
murine monoclonal antibody m2G3 (antibody, V domains shown, Murine hybridoma monoclonal) VH: QVQLKESGPGLVASSQSLSITCTVSGFSLSRYSVHWVRQPPGKGLEWLGMIWDGGNTDYNSALKSRLSISKDNSKSQVFLKMNSLQTDDTAMYYCARNPLYFSYAMDYWGQGTSVTVSS VL: DIQMTQSTSSLSASLGDRVTISCRASQDISNYLNWYQQKPDGTVKLLIIYTSRLQSGVPSRFSGSGSGTDYSLTISNLEQEDIATYFCQQVNTFPFTFGSGTKLEIK	0.867 µg/mL

In plain terms, humanized antibody 2G3-hu6 (antibody, human IgG1, V domains shown, hu2G3 VH1.2 + hu2G3 VL1) VH: QVQLQESGPGLVKPSQTLSLTCTVSGFSLSRYSVHWVRQPPGKGLEWIGMIWDGGNTDYAAPVKGRFTISRDDSKNTLYLQMNSLKTEDTAVYYCARNPLYFSYAMDYWGQGTLVTVSS VL: DIQMTQSPSSLSASVGDRVTITCRASQDISNYLNWYQQKPDQSPKLLIIYTSRLQSGVPSRFSGSGSGTDYTLTISSLQPEDFATYYCQQVNTFPFTFGQGTKLEIK has a documented EC50 of 0.82 µg/mL
